Assay: Urinary excretion of oral sugar probes
Type: in vivo, human
Conditions: 12-24 hour; percent excretion divided by creatinine clearance; mean ± SE
parameter-measured: Percent urinary excretion of oral sugar probe corrected for CrCl
Respond numerically, and do not add a unit to the figure.

Solved cases below.
compound | measured-number
OC[C@@H](O)[C@@H](O)[C@H](O)[C@H](O)CO [Mannitol, D-mannitol] | 0.08
OC[C@H]1O[C@@](CO)(O[C@H]2O[C@H](CO)[C@@H](O)[C@H](O)[C@H]2O)[C@@H](O)[C@@H]1O [Sucrose, α-D-glucopyranosyl-β-D-fructofuranoside] | 0.009
OC[C@H]1O[C@H](O[C@]2(CCl)O[C@H](CCl)[C@@H](O)[C@@H]2O)[C@H](O)[C@@H](O)[C@H]1Cl [Sucralose] | 0.004

Reported Percent urinary excretion of oral sugar probe corrected for CrCl for OC[C@H]1O[C@@H](O[C@@H]2[C@@H](CO)O[C@](O)(CO)[C@H]2O)[C@H](O)[C@@H](O)[C@H]1O [Lactulose] : what is it?
0.016

---

Documented % Total (of 24 h urinary excretion) corrected for CrCl across a set of molecules
Test: Urinary excretion of oral sugar probes
Format: in vivo, human
Details: 12-24 hour; normalized for CrCl
Answer in %, number only, no unit symbol.

Below: 3 molecules and their reported % Total (of 24 h urinary excretion) corrected for CrCl.
molecule | measured-number
OC[C@H]1O[C@H](O[C@]2(CCl)O[C@H](CCl)[C@@H](O)[C@@H]2O)[C@H](O)[C@@H](O)[C@H]1Cl | 28.2
OC[C@H]1O[C@@H](O[C@@H]2[C@@H](CO)O[C@](O)(CO)[C@H]2O)[C@H](O)[C@@H](O)[C@H]1O | 40
OC[C@@H](O)[C@@H](O)[C@H](O)[C@H](O)CO | 23.5

Next, consider the following molecule.
Fill blank: measured % Total (of 24 h urinary excretion) corrected for CrCl of the molecule OC[C@H]1O[C@@](CO)(O[C@H]2O[C@H](CO)[C@@H](O)[C@H](O)[C@H]2O)[C@@H](O)[C@@H]1O [Sucrose, α-D-glucopyranosyl-β-D-fructofuranoside] is ____.
40.8

---

Assay: Urinary excretion of oral sugar probes
Format: in vivo, human
Details: 0-5 hour; normalized for CrCl
parameter-measured: % Total (of 24 h urinary excretion) corrected for CrCl (%)
Numbers only; they are read as %.

Known % Total (of 24 h urinary excretion) corrected for CrCl results, listed for orientation:
compound | measured-number
OC[C@H]1O[C@H](O[C@]2(CCl)O[C@H](CCl)[C@@H](O)[C@@H]2O)[C@H](O)[C@@H](O)[C@H]1Cl [Sucralose] | 33.3
OC[C@@H](O)[C@@H](O)[C@H](O)[C@H](O)CO [Mannitol, D-mannitol] | 52.9
OC[C@H]1O[C@@H](O[C@@H]2[C@@H](CO)O[C@](O)(CO)[C@H]2O)[C@H](O)[C@@H](O)[C@H]1O [Lactulose] | 30

Next compound, % Total (of 24 h urinary excretion) corrected for CrCl to be filled in.
What value of measured % Total (of 24 h urinary excretion) corrected for CrCl is listed for OC[C@H]1O[C@@](CO)(O[C@H]2O[C@H](CO)[C@@H](O)[C@H](O)[C@H]2O)[C@@H](O)[C@@H]1O [Sucrose, α-D-glucopyranosyl-β-D-fructofuranoside] ?
26.9

---

Each entry below lists one item and its recorded % Total (cumulative) value.
Experiment: Urinary excretion of oral sugar probes
Format: in vivo, human
Conditions: cumulative first 12 h; not normalized
Could you give me the number in %? Just the number is fine.

Record excerpt, results attached:
compound | parameter-measured | measured-number
OC[C@H]1O[C@@H](O[C@@H]2[C@@H](CO)O[C@](O)(CO)[C@H]2O)[C@H](O)[C@@H](O)[C@H]1O | % Total (cumulative) | 56.1
OC[C@@H](O)[C@@H](O)[C@H](O)[C@H](O)CO | % Total (cumulative) | 81.5
OC[C@H]1O[C@H](O[C@]2(CCl)O[C@H](CCl)[C@@H](O)[C@@H]2O)[C@H](O)[C@@H](O)[C@H]1Cl | % Total (cumulative) | 65.6

Please look at the following compound next.
I would be grateful if you could share the reported % Total (cumulative) for OC[C@H]1O[C@@](CO)(O[C@H]2O[C@H](CO)[C@@H](O)[C@H](O)[C@H]2O)[C@@H](O)[C@@H]1O [Sucrose, α-D-glucopyranosyl-β-D-fructofuranoside] .
57

---

Test: Urinary excretion of oral sugar probes
Format: in vivo, human
Details: 0-5 hour; not normalized
parameter-measured: % Total (of 24 h urinary excretion) (%)
API: value field is a number in %; no unit string.

Examples with answers:
compound | % Total (of 24 h urinary excretion) / %
OC[C@@H](O)[C@@H](O)[C@H](O)[C@H](O)CO [Mannitol, D-mannitol] | 61.5
OC[C@H]1O[C@@H](O[C@@H]2[C@@H](CO)O[C@](O)(CO)[C@H]2O)[C@H](O)[C@@H](O)[C@H]1O [Lactulose] | 29.3
OC[C@H]1O[C@@](CO)(O[C@H]2O[C@H](CO)[C@@H](O)[C@H](O)[C@H]2O)[C@@H](O)[C@@H]1O [Sucrose, α-D-glucopyranosyl-β-D-fructofuranoside] | 29.6

Now look at this entry.
Value lookup for % Total (of 24 h urinary excretion); key = OC[C@H]1O[C@H](O[C@]2(CCl)O[C@H](CCl)[C@@H](O)[C@@H]2O)[C@H](O)[C@@H](O)[C@H]1Cl [Sucralose]
35.9

---

Assay: Urinary excretion of oral sugar probes
Format: in vivo, human
Settings: 12-24 hour; not normalized
% Total (of 24 h urinary excretion) overview
Numeric answer only, unit % assumed.

Recorded results for 3 compounds are shown here.
compound | parameter-measured | measured-number
OC[C@H]1O[C@@](CO)(O[C@H]2O[C@H](CO)[C@@H](O)[C@H](O)[C@H]2O)[C@@H](O)[C@@H]1O [Sucrose, α-D-glucopyranosyl-β-D-fructofuranoside] | % Total (of 24 h urinary excretion) | 43
OC[C@H]1O[C@@H](O[C@@H]2[C@@H](CO)O[C@](O)(CO)[C@H]2O)[C@H](O)[C@@H](O)[C@H]1O | % Total (of 24 h urinary excretion) | 43.9
OC[C@H]1O[C@H](O[C@]2(CCl)O[C@H](CCl)[C@@H](O)[C@@H]2O)[C@H](O)[C@@H](O)[C@H]1Cl | % Total (of 24 h urinary excretion) | 34.4

Now look at this entry.
Endpoint output: % Total (of 24 h urinary excretion) of `OC[C@@H](O)[C@@H](O)[C@H](O)[C@H](O)CO` . Value?
18.5

---

Assay: Urinary excretion of oral sugar probes
Assay type: in vivo, human
Details: 5-12 hour; not normalized
Each record here notes measured % Total (of 24 h urinary excretion).
Field: numeric (%). Do not append units.

Given OC[C@@H](O)[C@@H](O)[C@H](O)[C@H](O)CO [Mannitol, D-mannitol] , state its recorded % Total (of 24 h urinary excretion).
20

Please give the measured % Total (of 24 h urinary excretion) for this compound: OC[C@H]1O[C@@H](O[C@@H]2[C@@H](CO)O[C@](O)(CO)[C@H]2O)[C@H](O)[C@@H](O)[C@H]1O [Lactulose]
26.8

# query: % Total (of 24 h urinary excretion) of entry OC[C@H]1O[C@H](O[C@]2(CCl)O[C@H](CCl)[C@@H](O)[C@@H]2O)[C@H](O)[C@@H](O)[C@H]1Cl [Sucralose]
29.7

Item under review: OC[C@H]1O[C@@](CO)(O[C@H]2O[C@H](CO)[C@@H](O)[C@H](O)[C@H]2O)[C@@H](O)[C@@H]1O [Sucrose, α-D-glucopyranosyl-β-D-fructofuranoside] . Reported % Total (of 24 h urinary excretion)?
27.4

---

Test: Urinary excretion of oral sugar probes
Type: in vivo, human
Settings: cumulative first 12 h; normalized for CrCl
parameter-measured: % Total (cum) corrected for CrCl (%)
Field format: number, assumed %, no unit text.

Example results:
compound | % Total (cum) corrected for CrCl (%)
OC[C@H]1O[C@@H](O[C@@H]2[C@@H](CO)O[C@](O)(CO)[C@H]2O)[C@H](O)[C@@H](O)[C@H]1O | 60
OC[C@H]1O[C@@](CO)(O[C@H]2O[C@H](CO)[C@@H](O)[C@H](O)[C@H]2O)[C@@H](O)[C@@H]1O [Sucrose, α-D-glucopyranosyl-β-D-fructofuranoside] | 53.8
OC[C@@H](O)[C@@H](O)[C@H](O)[C@H](O)CO | 75.5

Here is the next item to consider.
Requested field: % Total (cum) corrected for CrCl. Item: `OC[C@H]1O[C@H](O[C@]2(CCl)O[C@H](CCl)[C@@H](O)[C@@H]2O)[C@H](O)[C@@H](O)[C@H]1Cl`
71.3

Every entry's value here was drawn from paper PMC4339548.
